# target: human kinase Mps-1 (Homo sapiens, UniProt P33981)
# Construct: N-terminally GST-tagged human full length recombinant Mps-1 kinase; GST (N)
# Sequence (P33981 whole entry): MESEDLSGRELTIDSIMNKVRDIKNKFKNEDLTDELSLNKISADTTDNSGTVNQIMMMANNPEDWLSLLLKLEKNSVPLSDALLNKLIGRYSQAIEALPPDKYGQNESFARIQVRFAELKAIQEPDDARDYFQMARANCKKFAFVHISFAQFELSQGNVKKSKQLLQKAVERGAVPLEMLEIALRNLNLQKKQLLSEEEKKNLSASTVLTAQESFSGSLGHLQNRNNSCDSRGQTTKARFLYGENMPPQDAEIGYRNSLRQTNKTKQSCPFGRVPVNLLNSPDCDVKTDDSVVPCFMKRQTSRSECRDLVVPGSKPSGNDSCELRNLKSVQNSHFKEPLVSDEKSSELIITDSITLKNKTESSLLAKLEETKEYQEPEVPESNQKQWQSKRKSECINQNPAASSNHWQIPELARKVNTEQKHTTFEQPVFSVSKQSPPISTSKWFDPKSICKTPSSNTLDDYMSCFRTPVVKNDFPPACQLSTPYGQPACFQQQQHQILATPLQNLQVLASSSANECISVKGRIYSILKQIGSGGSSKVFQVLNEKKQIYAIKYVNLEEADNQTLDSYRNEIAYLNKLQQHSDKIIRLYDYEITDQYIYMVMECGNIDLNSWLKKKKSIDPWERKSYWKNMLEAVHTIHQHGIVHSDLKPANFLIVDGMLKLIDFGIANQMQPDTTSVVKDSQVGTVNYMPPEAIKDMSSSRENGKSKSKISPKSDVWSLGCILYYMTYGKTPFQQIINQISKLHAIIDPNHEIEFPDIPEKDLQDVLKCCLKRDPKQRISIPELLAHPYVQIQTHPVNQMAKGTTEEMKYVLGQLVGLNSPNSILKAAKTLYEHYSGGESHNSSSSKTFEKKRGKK
# testMethodNotes: Mps-1 kinase assay (TR-FRET)
# setupConditions: N-terminally GST-tagged human full length recombinant Mps-1; 10 μM ATP; 1 μM peptide substrate; 15 min pre-incubation; 60 min at 22° C.
observable: IC50 (nM)

Worked set:
Given CCN(CC)CCNc1nc(-c2ccccc2)cn2c(-c3ccc(C(=O)NC4CC4)cc3)cnc12 , state its recorded IC50.
47.7

Given CC(C)CNc1nc(-c2cccc3ccccc23)cn2c(-c3ccc(C(=O)NC4CC4)cc3)cnc12 , state its recorded IC50.
4.6

Given O=C(NC1CC1)c1ccc(-c2cnc3c(NCCCn4ccnc4)nc(-c4ccccc4)cn23)cc1 , state its recorded IC50.
4.1

Given NCCCCCCNc1nc(-c2ccccc2)cn2c(-c3ccc(C(=O)NC4CC4)cc3)cnc12 , state its recorded IC50.
1.6

Given CC(C)CCNc1nc(-c2ccccc2)cn2c(-c3ccc(C(=O)NC4CC4)cc3)cnc12 , state its recorded IC50.
3.2

Given O=C(NC1CC1)c1ccc(-c2cnc3c(NCCN4CCCC4)nc(-c4ccccc4)cn23)cc1 , state its recorded IC50.
27.4

1 = CCC(CNc1nc(-c2ccccc2)cn2c(-c3ccc(C(=O)NC4CC4)cc3)cnc12)OC (centres unmarked)
2 = O=C(NC1CC1)c1ccc(-c2cnc3c(NCC4CCCCC4)nc(-c4cccc5ncccc45)cn23)cc1
Of the two listed items, which has the higher IC50? First: 1 Second: 2 Indicate your choice by writing its label.
1

* * *

# target: human kinase Mps-1 (Homo sapiens, UniProt P33981)
# Construct: N-terminally GST-tagged human full length recombinant Mps-1 kinase; GST (N)
# testMethodNotes: Mps-1 kinase assay (TR-FRET)
# setupConditions: N-terminally GST-tagged human full length recombinant Mps-1; 10 μM ATP; 1 μM peptide substrate; 15 min pre-incubation; 60 min at 22° C.
observable: IC50 (nM)

Worked set:
Given CC(C)CNc1nc(-c2cccc(C(=O)N3CCCC3)c2)cn2c(-c3ccc(C(=O)NC4CC4)cc3)cnc12 , state its recorded IC50.
6.2

Given O=C(NC1CC1)c1ccc(-c2cnc3c(NC[C@H](O)CO)nc(-c4ccccc4)cn23)cc1 , state its recorded IC50.
4.4

Given O=C(NC1CC1)c1ccc(-c2cnc3c(NCc4sccc4Cl)nc(-c4ccccc4)cn23)cc1 , state its recorded IC50.
6.4

Given O=C(NC1CC1)c1ccc(-c2cnc3c(NCc4ccccn4)nc(-c4ccccc4)cn23)cc1 , state its recorded IC50.
3.3

Given NCCCCNc1nc(-c2ccccc2)cn2c(-c3ccc(C(=O)NC4CC4)cc3)cnc12 , state its recorded IC50.
7.2

Given CC(C)CNc1nc(-c2ccc(S(C)(=O)=O)cc2)cn2c(-c3ccc(C(=O)NC4CC4)cc3)cnc12 , state its recorded IC50.
2.5

Given COc1cccc(-c2cn3c(-c4ccc(C(=O)NC5CC5)cc4)cnc3c(NCC(C)C)n2)c1F , state its recorded IC50.
7

Given O=C(NC1CC1)c1ccc(-c2cnc3c(NCc4cccs4)nc(-c4ccccc4)cn23)cc1 , state its recorded IC50.
2.5

Given Cc1cn2c(-c3ccc(C(=O)NC4CC4)cc3)cnc2c(NCC(C)C)n1 , state its recorded IC50.
11.9

Given Cc1cc(-c2cnc3c(NCC(C)C)nc(-c4ccc(F)cc4)cn23)ccc1C(=O)NC1CC1 , state its recorded IC50.
5.1

I = Cc1cc(-c2cnc3c(NCC4CCOCC4)nc(-c4ccc(F)cc4)cn23)ccc1C(=O)NC1CC1
II = CC(C)(O)CNc1nc(C2=CCOCC2)cn2c(-c3ccc(C(=O)NC4CC4)c(Cl)c3)cnc12
Consider entries I and II . Which has the numerically lower IC50? Indicate your choice by writing its label.
I
